Molecular target: beta-catenin/TCF4 engagement (Homo sapiens)
Construct: expressed in transfected cells; host or cells: HEK293
Sequence (P35222 whole entry): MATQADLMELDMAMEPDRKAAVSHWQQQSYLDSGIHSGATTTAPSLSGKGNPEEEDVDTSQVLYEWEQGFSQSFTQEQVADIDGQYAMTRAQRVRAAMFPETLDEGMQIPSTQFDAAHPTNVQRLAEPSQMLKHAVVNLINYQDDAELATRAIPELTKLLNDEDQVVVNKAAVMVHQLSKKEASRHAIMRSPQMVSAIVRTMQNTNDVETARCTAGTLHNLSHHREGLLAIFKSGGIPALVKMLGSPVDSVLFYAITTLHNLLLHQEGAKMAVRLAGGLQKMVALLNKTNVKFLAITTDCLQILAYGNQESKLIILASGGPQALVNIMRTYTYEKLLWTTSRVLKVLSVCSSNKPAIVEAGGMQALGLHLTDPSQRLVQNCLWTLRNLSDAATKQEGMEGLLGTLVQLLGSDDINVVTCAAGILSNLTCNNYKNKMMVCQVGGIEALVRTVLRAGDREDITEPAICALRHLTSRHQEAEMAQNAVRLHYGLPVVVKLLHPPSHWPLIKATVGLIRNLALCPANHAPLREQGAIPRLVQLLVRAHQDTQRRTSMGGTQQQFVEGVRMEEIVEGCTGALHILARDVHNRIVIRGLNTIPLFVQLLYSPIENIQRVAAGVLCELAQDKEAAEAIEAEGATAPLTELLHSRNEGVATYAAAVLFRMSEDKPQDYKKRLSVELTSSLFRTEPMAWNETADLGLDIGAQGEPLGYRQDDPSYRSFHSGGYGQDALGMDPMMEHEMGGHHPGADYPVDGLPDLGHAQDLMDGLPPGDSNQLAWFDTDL
Test: Nano-BRET target engagement assay (B-cat-Halo & TCF4-Luc in HEK293 cells)
Assay type: cell-based
Conditions: absolute IC50; read-out: NanoBRET Abs IC50
measure.name: pIC50
Answers are plain numbers, as −log10 of the molar value.

// pIC50 value for CC(=O)N1CCC[C@]12CC=CCCCC1(CCCC=CCCCOC(=O)N3CC[C@@](C(=O)N[C@@H](Cc4ccccc4C(F)(F)F)C(=O)N[C@H](C(=O)N[C@@H](CCC(N)=O)C(N)=O)[C@@H](C)c4ccc5ccccc5c4)(C3)NC(=O)[C@H](CC(C)C)NC(=O)[C@H](Cc3ccccc3)NC(=O)[C@H](C)NC(=O)[C@H](C)NC(=O)[C@H](Cc3cccc(C(=O)O)c3)NC(=O)[C@H](CC(=O)O)NC1=O)NC(=O)[C@H](CC(C)(C)C)NC(=O)[C@H](CC(=O)O)NC2=O (stereo partly shown) [I-2464] : 4.78

* * *

Test: Solubility in PBS
Type: physicochemical
Description: After ultracentrifugation of the PBS solution, the supernatant was analyzed by HPLC and compared to an HPLC injection 50 μM peptide DMSO solution. Solubility was determined by: [(Area of PBS peak)/(Area of DMSO peak)]*50 uM.
Assign Solubility to each entry below.
One number for each entry, in µM.

- CC(=O)N1CCC[C@H]1C(=O)N[C@@H](CC(=O)O)C(=O)N[C@@H](CC(C)(C)C)C(=O)N[C@]1(C)CCCC=CCCCOC(=O)N2CC[C@@](C(=O)N[C@@H](Cc3ccsc3)C(=O)N[C@@H](Cc3csc4ccccc34)C(=O)N[C@@H](CCC(N)=O)C(N)=O)(C2)NC(=O)[C@H](CC(C)C)NC(=O)[C@H](Cc2ccccc2)NC(=O)[C@H](C)NC(=O)[C@H](C)NC(=O)[C@H](CC(=O)O)NC(=O)[C@H](CC(=O)O)NC1=O: 50

Lab note: measured Solubility of CC(=O)N1CCC[C@]12CC=CCCCC1(CCCC=CCCCOC(=O)N3CC[C@@](C(=O)N[C@@H](Cc4ccccc4Cl)C(=O)N[C@@H](Cc4csc5ccccc45)C(=O)N[C@@H](CCC(N)=O)C(N)=O)(C3)NC(=O)[C@H](CO)NC(=O)[C@H](Cc3ccccc3)NC(=O)[C@H](CC(C)C)NC(=O)[C@H](C)NC(=O)[C@H](CC(=O)O)NC(=O)[C@H](CC(=O)O)NC1=O)NC(=O)[C@H](CC1CCCCC1)NC(=O)[C@H](CC(=O)O)NC2=O (some centres unmarked) was 10

* * *

Field: chromatographic logD. Provide a value for each of the compounds that follow.
Assay: CHI Log D procedure
Format: physicochemical
Details: pH 7.4, CHI Log D
One number for each entry.

• CC(=O)N1CCC[C@]12CC=CCCCC1(CCCC=CCCCCCC[C@@](C)(C(=O)N[C@@H](Cc3ccccc3Cl)C(=O)N[C@@H](Cc3csc4ccccc34)C(=O)N[C@@H](CCC(N)=O)C(N)=O)NC(=O)[C@H](CC(C)C)NC(=O)[C@H](Cc3ccccc3)NC(=O)[C@H](C)NC(=O)[C@H](C)NC(=O)[C@H](CN(CC(=O)O)CC(F)(F)F)NC(=O)[C@H](CC(=O)O)NC1=O)NC(=O)[C@H](CC(C)(C)C)NC(=O)[C@H](CC(=O)O)NC2=O (stereo partly shown) [I-994] = 3.21
• CC(=O)N1CCC[C@]12CC=CCCCC1(CCCC=CCCCCCC[C@@](C)(C(=O)N[C@@H](Cc3ccccc3C)C(=O)N[C@@H](Cc3csc4ccccc34)C(=O)N[C@@H](CCC(N)=O)C(N)=O)NC(=O)[C@H](C)NC(=O)[C@H](Cc3ccccc3)NC(=O)[C@H](C)NC(=O)[C@H](C)NC(=O)[C@H](CC(=O)O)NC(=O)[C@H](CC(=O)O)NC1=O)NC(=O)[C@H](C)NC(=O)[C@H](CC(=O)O)NC2=O (stereo partly shown) [I-367] = 2.15
• CC(=O)N1CCC[C@]12CC=CCCCC1(CCCC=CCCCOC(=O)N3CC[C@@](C(=O)N[C@@H](Cc4ccccc4Cl)C(=O)N[C@@H](Cc4csc5ccccc45)C(=O)N[C@@H](C(N)=O)[C@H](C)O)(C3)NC(=O)[C@H]([C@@H](C)O)NC(=O)[C@H](Cc3ccccc3)NC(=O)[C@H](C)NC(=O)[C@H](C)NC(=O)[C@H](CC(=O)O)NC(=O)[C@H](CC(=O)O)NC1=O)NC(=O)[C@H](CC(C)(C)C)NC(=O)[C@H](CC(=O)O)NC2=O (stereo partly shown) [I-1033] = 2.5
• COc1ccccc1C[C@H](NC(=O)[C@]1(C)CCCCCCC=CCCCC2(CCCC=CC[C@]3(CCCN3C(C)=O)C(=O)N[C@@H](CC(=O)O)C(=O)N[C@@H](C)C(=O)N2)C(=O)N[C@@H](CC(=O)O)C(=O)N[C@@H](CCC(=O)O)C(=O)N[C@@H](C)C(=O)N[C@@H](C)C(=O)N[C@@H](Cc2ccccc2)C(=O)N[C@@H](CC(N)=O)C(=O)N1)C(=O)N[C@@H](Cc1csc2ccccc12)C(=O)N[C@@H](CCC(N)=O)C(N)=O (stereo partly shown) [I-437] = 2
• CC(=O)N1CCC[C@]12CC=CCCCC1(CCCC=CCCCCCC[C@@](C)(C(=O)N[C@@H](Cc3cccc(F)c3)C(=O)N[C@@H](Cc3csc4ccccc34)C(=O)N[C@@H](CCC(N)=O)C(N)=O)NC(=O)[C@H](CCC(N)=O)NC(=O)[C@H](Cc3ccccc3)NC(=O)[C@H](C)NC(=O)[C@H](C)NC(=O)[C@H](Cc3c[nH]cn3)NC(=O)[C@H](CC(=O)O)NC1=O)NC(=O)[C@H](C)NC(=O)[C@H](CC(=O)O)NC2=O (stereo partly shown) [I-399] = 2.52
• CC(=O)N1CCC[C@]12CC=CCCCC1(CCCC=CCCCOC(=O)N3CC[C@@](C(=O)N[C@@H](Cc4ccsc4)C(=O)N[C@@H](Cc4csc5ccccc45)C(=O)N[C@@H](Cc4c[nH]cn4)C(N)=O)(C3)NC(=O)[C@H](CC(N)=O)NC(=O)[C@H](CC(=O)O)NC(=O)[C@H](C)NC(=O)[C@H](C)NC(=O)[C@H](CC(=O)O)NC(=O)[C@H](CC(=O)O)NC1=O)NC(=O)[C@H](CC(C)(C)C)NC(=O)[C@H](Cc1ccccc1)NC2=O (stereo partly shown) [I-796] = 2.45

Report chromatographic logD for every entry below.
1. CC(=O)N1CCC[C@]12CC=CCCCC1(CCCC=CCCCCCC[C@@](C)(C(=O)N[C@@H](Cc3ccccc3)C(=O)N[C@@H](Cc3csc4ccccc34)C(=O)N[C@@H](CCC(N)=O)C(N)=O)NC(=O)[C@H](C(C)C)NC(=O)[C@H](Cc3ccccc3)NC(=O)[C@H](C)NC(=O)[C@H](C)NC(=O)[C@H](CN(CC(=O)O)CC(F)(F)F)NC(=O)[C@H](CC(=O)O)NC1=O)NC(=O)[C@H](C)NC(=O)[C@H](CC(=O)O)NC2=O (stereo partly shown) [I-293]
2. CC(=O)N1CCC[C@]12CC=CCCCC1(CCCC=CCCCCCC[C@@](C)(C(=O)N[C@@H](Cc3ccccc3)C(=O)N[C@@H](Cc3csc4ccccc34)C(=O)N[C@@H](CCC(N)=O)C(N)=O)NC(=O)[C@H](CC(N)=O)NC(=O)[C@H](Cc3ccccc3)NC(=O)[C@H](C)NC(=O)[C@H](C)NC(=O)[C@H](CCC(=O)O)NC(=O)[C@H](CC(=O)O)NC1=O)NC(=O)[C@H](C)NC(=O)[C@H](CNS(C)(=O)=O)NC2=O (stereo partly shown) [I-534]
3. CCCC[C@@H]1NC(=O)[C@H](CC(=O)O)NC(=O)[C@]2(CC=CCCCC3(CCCC=CCCCCCC[C@@](C)(C(=O)N[C@@H](Cc4ccccc4)C(=O)N[C@@H](Cc4csc5ccccc45)C(=O)N[C@@H](CCC(N)=O)C(N)=O)NC(=O)[C@H](C)NC(=O)[C@H](Cc4ccccc4)NC(=O)[C@H](C)NC(=O)[C@H](C)NC(=O)[C@H](CCC(=O)O)NC(=O)[C@H](CC(=O)O)NC3=O)NC1=O)CCCN2C(C)=O (stereo partly shown) [I-411]
4. CC(=O)N1CCC[C@]12CC=CCCCC1(CCCC=CCCCOC(=O)N3CC[C@@](C(=O)N[C@@H](Cc4ccsc4)C(=O)N[C@@H](Cc4csc5ccccc45)C(=O)N[C@@H](Cc4c[nH]cn4)C(N)=O)(C3)NC(=O)[C@H](CC(N)=O)NC(=O)[C@H](Cc3ccccc3)NC(=O)[C@H](C)NC(=O)[C@H](C)NC(=O)[C@H](CC(=O)O)NC(=O)[C@H](CC(=O)O)NC1=O)NC(=O)[C@H](CC(C)C)NC(=O)[C@H](CC(=O)O)NC2=O (stereo partly shown) [I-696]

-- reply
[2.38, 2.43, 2.57, 2]
